- Test system: human platelets
- testName: Human platelet viability assay
- Type: cell-based
- settings: Homo sapiens, Platelet, 48 h, read-out: IC50 48 h treatment Platelets
pIC50: −log10 of the molar value.

| compound | pIC50 |
| --- | --- |
| CC1(C)CCC(c2ccc(Cl)cc2)=C(CN2CCN(c3ccc(C(=O)NS(=O)(=O)c4ccc(N[C@H](CCN5CCN(CCOCCOCCOCCNc6cccc7c6C(=O)N(C6CCC(=O)NC6=O)C7=O)CC5)CSc5ccccc5)c(S(=O)(=O)C(F)(F)F)c4)cc3)CC2)C1 (stereo partly shown) [Compound 12c] | 5.81 |
| CN(CCCNc1cccc2c1C(=O)N(C1CCC(=O)NC1=O)C2=O)CC[C@H](CSc1ccccc1)Nc1ccc(S(=O)(=O)NC(=O)c2ccc(N3CCN(CC4=C(c5ccc(Cl)cc5)CCC(C)(C)C4)CC3)cc2)cc1S(=O)(=O)C(F)(F)F (stereo partly shown) [Compound 16a] | 5.48 |
| CN(CCCCCCCn1cc(COCCOCCNc2cccc3c2C(=O)N(C2CCC(=O)NC2=O)C3=O)nn1)CC[C@H](CSc1ccccc1)Nc1ccc(S(=O)(=O)NC(=O)c2ccc(N3CCN(CC4=C(c5ccc(Cl)cc5)CCC(C)(C)C4)CC3)cc2)cc1S(=O)(=O)C(F)(F)F (stereo partly shown) [Compound 15a] | 5.20 |
| CN(CCOCCOCCOCCNc1cccc2c1C(=O)N(C1CCC(=O)NC1=O)C2=O)CC[C@H](CSc1ccccc1)Nc1ccc(S(=O)(=O)NC(=O)c2ccc(N3CCN(CC4=C(c5ccc(Cl)cc5)CCC(C)(C)C4)CC3)cc2)cc1S(=O)(=O)C(F)(F)F (stereo partly shown) [Compound 17b] | 5.91 |
